Consider molecules characterized by their pKi with human RAR-related orphan receptor gamma (hRORγ) (Homo sapiens (Human)).
Sequence (P51449 whole entry): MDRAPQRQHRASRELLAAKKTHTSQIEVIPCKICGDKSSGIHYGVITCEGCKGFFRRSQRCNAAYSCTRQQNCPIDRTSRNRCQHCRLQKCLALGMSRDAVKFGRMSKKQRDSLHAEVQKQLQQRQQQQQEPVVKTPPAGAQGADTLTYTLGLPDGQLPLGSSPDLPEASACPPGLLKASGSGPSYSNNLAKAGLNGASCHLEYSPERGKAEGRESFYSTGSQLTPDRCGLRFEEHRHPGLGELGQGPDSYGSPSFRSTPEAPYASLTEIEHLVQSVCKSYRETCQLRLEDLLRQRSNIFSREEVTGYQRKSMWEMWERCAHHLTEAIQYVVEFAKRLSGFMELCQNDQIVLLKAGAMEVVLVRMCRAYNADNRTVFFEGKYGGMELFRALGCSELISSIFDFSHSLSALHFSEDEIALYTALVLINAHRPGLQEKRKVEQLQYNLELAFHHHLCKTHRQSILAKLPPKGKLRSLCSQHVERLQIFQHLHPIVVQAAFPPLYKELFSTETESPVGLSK
Lab note — pKi values are minus log10 of concentrations in M.

[in] Can you look up pKi on human RAR-related orphan receptor gamma (hRORγ) (Homo sapiens (Human)) for `CCS(=O)(=O)c1ccc(CNC(=O)c2cc3c(s2)C2(CCN(Cc4ccc(-c5ncon5)cc4F)CC2)O[C@@H](C)C3)nc1` ?
[out] 8.22

[in] human RAR-related orphan receptor gamma (hRORγ) (Homo sapiens (Human)) / pKi / CCS(=O)(=O)c1ccc(CNC(=O)c2cc3c(s2)C2(CCN(C(C)c4ccc(C(F)(F)F)nc4)CC2)OC(C)C3)cc1 (single isomer, unassigned; isomer 2) : value?
[out] 8.35
